Data provenance: ChEMBL document CHEMBL2157947

experiment: AUC in rat at 8.4 mg/kg; assay type: ADME, organism-based; set-up: dose 8.4 mg/kg; settings: plasma
attribute.measured: AUC (ng·h/mL)
Give bare numbers, in ng·h/mL.

Input Cn1c(=O)c2c(-c3cc(F)ccc3Br)c(CN)c(N3CCOCC3)nc2n(C)c1=O . Output AUC: 23000
